Test: chemical genetic growth profiling, strain panel (AID 1159580);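 note: tested at 20 µM; growth read once vehicle control cultures reached saturation at 30 °C; 1 = growth at the plate median or of vehicle wells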
Details: S. cerevisiae deletion strains, growth OD, locus YOR290C, strain snf2, stronger effect = lower value
Screen size: about 5,500 compounds; about 2,000 (36%) were called active. Not shown: some 18% with an inconclusive outcome. The list shows a part of the results.
Mark YES for normalized growth under 1, NO if at or over.

Q: Here's an entry: COc1c(C)c2c(c(O)c1C/C=C(\C)CCC(=O)O)C(=O)OC2 . Is its normalized growth below 1?
Result: YES

Q: Input O=c1[nH]c(=O)n(C2C[C@H](O)[C@@H](CO)O2)cc1C(F)(F)F (stereo partly drawn) ; condition: normalized growth strictly below 1. Does it hold?
Result: YES

Q: Does NC(=O)CS(=O)C(c1ccccc1)c1ccccc1 (stereo not drawn) have normalized growth strictly under 1?
Result: NO

Q: Would you kindly verify if normalized growth of CCCCCCCCCCCCCC(=O)OC1C(C)C2(O)C(C=C(CO)CC3(O)C(=O)C(C)=CC32)C2C(C)(C)C12OC(C)=O (stereo not drawn) is strictly less than 1?
Result: YES

Q: Item Cc1oncc1C(=O)Nc1ccc(C(F)(F)F)cc1 : normalized growth beneath 1, strictly?
Result: YES

Q: Item NC(=O)NC1NC(=O)NC1=O (stereo not drawn) : normalized growth beneath 1, strictly?
Result: NO

Q: # check: normalized growth < 1 for NC(N)=NCCCCN=C(N)N
Result: YES

Q: API: query returns whether the compound falls strictly under 1 in normalized growth. Query: COc1ccc2oc3ccccc3c(=O)c2c1
Result: YES

Q: Item COc1ccc(-c2oc3cc(OC)c(OC)c(OC)c3c(=O)c2OC)cc1 : normalized growth beneath 1, strictly?
Result: YES

Q: Is it true that normalized growth reported for CCC(C)C(=O)c1c(O)c(C)c2oc3c(C)c(O)c(C(=O)C(C)CC)c(O)c3c2c1O (stereo not drawn) is less than 1?
Result: YES

---

Test: chemical genetic growth profiling, strain panel (AID 1159580);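 note: tested at 20 µM; growth read once vehicle control cultures reached saturation at 30 °C; 1 = growth at the plate median or of vehicle wells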
Details: S. cerevisiae deletion strains, growth OD, locus YMR223W, strain ubp8, stronger effect = lower value
Among all 5,500 compounds or so, about 2,000 (36%) were called active. Not shown: some 18% with an inconclusive outcome. The list shows a part of the results.
Parameter measured: normalized growth
No unit in the answer, only the number.

Q: Give its normalized growth value. Item: COc1ccc2c(=O)c(OC)c(-c3ccccc3)oc2c1
Result: 0.845

Q: # input compound: CC(=O)O[C@]1(C)CC[C@@]23CC1C(C)(C)[C@@H]2CC[C@H]3C ; wanted: its normalized growth
Result: 0.959

Q: Query: normalized growth; subject: NC1(C(=O)O)CCC1
Result: 0.935

Q: Given the compound CC(=O)C1CC[C@H]2C3CC[C@H]4C[C@H](O)CC[C@]4(C)C3CC[C@]12C (stereo partly specified) , what is its reported normalized growth?
Result: 0.977

Q: What value of normalized growth has been recorded for this entry: CC(=O)C1CCC2C3CCC4C[C@H](O)CCC4(C)C3C[C@H](O)C12C (stereo partly specified)
Result: 1.03

Q: Reported normalized growth for COc1ccc2c(c1)OCC(Cc1ccc(OC)c(O)c1)C2=O (stereo unspecified) : what is it?
Result: 0.933

---

Experiment: chemical genetic growth profiling, strain panel (AID 1159580);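 note: tested at 20 µM; growth read once vehicle control cultures reached saturation at 30 °C; 1 = growth at the plate median or of vehicle wells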
Conditions: S. cerevisiae deletion strains, growth OD, locus YBR009C, strain hhf1, stronger effect = lower value
Hit rate of the full screen: of about 5,500 compounds, about 2,000 (36%) were called active. Not shown: some 18% with an inconclusive outcome. The list shows a part of the results.
Parameter measured: normalized growth

Q: For the molecule shown here, FC(F)(F)c1cccc(N2CCNCC2)c1 , give the reported normalized growth.
Result: 0.978 (inactive)

Q: Requested field: normalized growth. Item: COc1ccnc(CS(=O)c2nc3ccc(OC(F)F)cc3[nH]2)c1OC (configuration not stated)
Result: 0.991 (inactive)

Q: Find the recorded normalized growth belonging to Cc1cc(CC(=O)O)n(C)c1C(=O)c1ccc(Cl)cc1 and report it.
Result: 0.999 (inactive)

Q: I would be grateful if you could share the reported normalized growth for O=C1CCCN1CC#CCN1CCCC1 .
Result: 1.01 (inactive)

Q: Entry CC(=O)O[C@H]1C[C@@H](OC(C)=O)C(C)(C)C2C[C@@H](OC(C)=O)[C@]3(C)C(CC[C@@]4(C)[C@H](c5ccoc5)OC(=O)[C@H]5O[C@]543)[C@]21C (some centres not stated) : reported normalized growth = ?
Result: 1.02 (inactive)

Q: Item under review: CCC(C)C(=O)c1c(O)c(C)c2oc3c(C)c(O)c(C(=O)C(C)CC)c(O)c3c2c1O (configuration not stated) . Reported normalized growth?
Result: 0.977 (inactive)

Q: What value of normalized growth has been reported for the following molecule? NC(=O)NC1NC(=O)NC1=O (configuration not stated)
Result: 0.999 (inactive)

Q: Would you mind telling me what normalized growth value was observed for O=C(O)CCCCCCCC(=O)O ?
Result: 1.01 (inactive)

Q: Entry under review: CN(C)C(=O)Oc1ccc[n+](C)c1 . Reported normalized growth?
Result: 0.996 (inactive)

Q: Can you look up the measured normalized growth of Nc1nc(F)nc2c1ncn2[C@@H]1O[C@H](COP(=O)(O)O)[C@@H](O)[C@@H]1O for me?
Result: 1.01 (inactive)

Q: Looking for the measured normalized growth of O=C(O)C1CCCNC1 (configuration not stated) , can you help?
Result: 1.01 (inactive)

Q: Quick check: normalized growth of C=C[C@@]1(C)CC(=O)[C@@]2(O)[C@](C)(O1)[C@@H](OC(C)=O)[C@@H](O)C1C(C)(C)CC[C@H](O)[C@@]12C (some centres not stated) ?
Result: 1 (inactive)

Q: Recorded normalized growth of NCCCNCCSP(=O)(O)O , please.
Result: 0.988 (inactive)

Q: Reported normalized growth, molecule NC(N)=NCCCCN=C(N)N : ____
Result: 1.01 (inactive)

Q: If you can, please state the reported normalized growth value of CC(C)(S)[C@@H](N)C(=O)O .
Result: 0.992 (inactive)

Q: # get_value(readout='normalized growth', item= NC(=O)CS(=O)C(c1ccccc1)c1ccccc1 (configuration not stated) )
Result: 0.976 (inactive)

Q: Fill blank: measured normalized growth of the molecule NC1(C(=O)O)CCCC1 is ____.
Result: 1 (inactive)

Q: Returns the measured normalized growth for the input molecule. Input: CC(C)c1nc(N(C)S(C)(=O)=O)nc(-c2ccc(F)cc2)c1/C=C/[C@@H](O)C[C@@H](O)CC(=O)O
Result: 0.998 (inactive)

Q: Record request: normalized growth value, item CC1(C)C(=O)[C@@H]2O[C@@H]2[C@@]2(C)C1C[C@@H](O)[C@]1(C)C2CC[C@@]2(C)[C@H](c3ccoc3)OC(=O)C3OC321 (some centres not stated)
Result: 1 (inactive)

Q: Please give the measured normalized growth for this molecule: O=c1oc2ccccc2cc1O
Result: 1 (inactive)

Q: # normalized growth lookup, item CC(C)/C(O)=C1/C(=O)O[C@@H](c2ccoc2)[C@]2(C)C(O)[C@@H](O)[C@@]34OC5(C)OC67CC(C)(C(O)[C@]6(O)[C@@H](O)[C@]3(O5)C12)[C@H](CC(=O)O)[C@]74C (some centres not stated)
Result: 0.993 (inactive)

Q: Entry NC1(C(=O)O)CC1 has what normalized growth?
Result: 1.02 (inactive)

Q: Find the recorded normalized growth belonging to Clc1ccccc1CN1CCc2sccc2C1 and report it.
Result: 1.01 (inactive)

Q: What does the record list as normalized growth for CN[C@@H]1C(OC2[C@H](O[C@H]3[C@H](O)[C@@H](O)[C@H](N=C(N)N)[C@@H](O)[C@@H]3N=C(N)N)OC(C)[C@]2(O)CO)OC(CO)C(O)C1O (some centres not stated) ?
Result: 1.01 (inactive)

Q: Please look up its normalized growth: CC(O)(P(=O)(O)O)P(=O)(O)O
Result: 0.976 (inactive)

Q: Suppose we examine the molecule COc1ccc2c(c1)OCC(Cc1ccc(O)c(OC)c1)C2=O (configuration not stated) ; what normalized growth value has been reported?
Result: 0.972 (inactive)

Q: GET /values?readout=normalized growth&item= COC(=O)[C@H](c1ccccc1Cl)N1CCc2sccc2C1
Result: 0.989 (inactive)

---

Assay: chemical genetic growth profiling, strain panel (AID 1159580);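 note: tested at 20 µM; growth read once vehicle control cultures reached saturation at 30 °C; 1 = growth at the plate median or of vehicle wells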
Details: S. cerevisiae deletion strains, growth OD, locus YHR094C, strain hxt1, stronger effect = lower value
The campaign covered roughly 5,500 compounds. About 2,000 (36%) were called active. Not shown: some 18% with an inconclusive outcome. This is one part of the list.
Give normalized growth for every item shown.
# output: bare number, no unit

Q: Can you share its normalized growth? I mean this molecule: O=C1CCCCC/C=C/CCCCCCCCO1
Result: 0.997

Q: GET /values?readout=normalized growth&item= O=C(O)COc1ccc(Cl)cc1Cl
Result: 1.01

Q: State the recorded normalized growth for this entry: COC1=CC(=O)OC(CCc2ccc(OC)c(OC)c2)C1 (stereo unspecified)
Result: 1.01

Q: Returns the measured normalized growth for the input molecule. Input: O=C(O)C1CCCNC1 (stereo unspecified)
Result: 1.02

Q: Name the reported normalized growth value associated with the molecule CC(=O)O[C@H]1C[C@@H](OC(C)=O)C(C)(C)C2C[C@@H](O)[C@]3(C)C(CC[C@@]4(C)[C@H](c5ccoc5)OC(=O)[C@H]5O[C@]543)[C@]21C (stereo partly specified)
Result: 0.975

Q: Given the molecule CCC(=O)OC1[C@@H]2CC3=C4CC(=O)O[C@@H](c5ccoc5)[C@]4(C)CCC3[C@@](C)(C2=O)[C@@H](CC(=O)OC)C1(C)C (stereo partly specified) , what is its reported normalized growth?
Result: 1.01

Q: # lookup: normalized growth of NC1(C(=O)O)CC1
Result: 1.01

Q: What normalized growth value was documented for this molecule, Fc1ccc([C@@H]2CCNC[C@H]2COc2ccc3c(c2)OCO3)cc1 ?
Result: 0.999

Q: Bench note: what normalized growth did O=c1oc2ccccc2cc1O show?
Result: 0.989

Q: Find the recorded normalized growth belonging to COc1cc2c(cc1OC)C1(O)C(=O)c3ccc(O)c(C(=O)O)c3OC1CO2 (stereo unspecified) and report it.
Result: 0.982

Q: Please give the measured normalized growth for this molecule: CN(C)C(=O)Oc1ccc[n+](C)c1
Result: 1.02

Q: Data request, read-out normalized growth, for CCCCCCCCCCCCCC(=O)OC1C(C)C2(O)C(C=C(CO)CC3(O)C(=O)C(C)=CC32)C2C(C)(C)C12OC(C)=O (stereo unspecified)
Result: 0.994

Q: Tell me the measured normalized growth of COc1ccc(-c2cc(=O)c3c(OC)cc(OC)cc3o2)cc1 , please.
Result: 1.01

Q: Find the recorded normalized growth belonging to C1N2CN3CN1CN(C2)C3 and report it.
Result: 0.976

Q: I have this molecule here, Cc1cccc(C)c1NC(=O)C1CCCCN1C (stereo unspecified) , and I need its recorded normalized growth.
Result: 1.01

Q: Name the reported normalized growth value associated with the molecule CCCNC(=O)NS(=O)(=O)c1ccc(Cl)cc1
Result: 1.01
